Values from ChEMBL document CHEMBL3885861

# Species: Rattus norvegicus
# Assay Comment: Open TG-GATES - Regimen: Single
# Format: toxicity, organism-based, Sprague-Dawley
# Design: regimen Single, gender Male, age 6 weeks
# Condition Context: in vivo, po, 100 mg/kg, 3 h, tissue Plasma, route gavage, dose level Low

Cpd Smiles	ALT
CN/C(=N/CCSCc1nc[nH]c1C)NC#N	39.4 IU/L
CNC(=C[N+](=O)[O-])NCCSCc1ccc(CN(C)C)o1	38.2 IU/L
COC(=O)C1=C(C)NC(C)=C(C(=O)OC)C1c1ccccc1[N+](=O)[O-]	44.8 IU/L
O=C(OC[C@H]1O[C@@H](OC(=O)c2cc(O)c(O)c(OC(=O)c3cc(O)c(O)c(O)c3)c2)[C@H](OC(=O)c2cc(O)c(O)c(OC(=O)c3cc(O)c(O)c(O)c3)c2)[C@@H](OC(=O)c2cc(O)c(O)c(OC(=O)c3cc(O)c(O)c(O)c3)c2)[C@@H]1OC(=O)c1cc(O)c(O)c(OC(=O)c2cc(O)c(O)c(O)c2)c1)c1cc(O)c(O)c(OC(=O)c2cc(O)c(O)c(O)c2)c1	37.8 IU/L
Cc1nnc2n1-c1ccc(Cl)cc1C(c1ccccc1Cl)=NC2	40.8 IU/L
